# system: T1, human GIP receptor (human) (UniProt P48546)
# T1 sequence (looked up): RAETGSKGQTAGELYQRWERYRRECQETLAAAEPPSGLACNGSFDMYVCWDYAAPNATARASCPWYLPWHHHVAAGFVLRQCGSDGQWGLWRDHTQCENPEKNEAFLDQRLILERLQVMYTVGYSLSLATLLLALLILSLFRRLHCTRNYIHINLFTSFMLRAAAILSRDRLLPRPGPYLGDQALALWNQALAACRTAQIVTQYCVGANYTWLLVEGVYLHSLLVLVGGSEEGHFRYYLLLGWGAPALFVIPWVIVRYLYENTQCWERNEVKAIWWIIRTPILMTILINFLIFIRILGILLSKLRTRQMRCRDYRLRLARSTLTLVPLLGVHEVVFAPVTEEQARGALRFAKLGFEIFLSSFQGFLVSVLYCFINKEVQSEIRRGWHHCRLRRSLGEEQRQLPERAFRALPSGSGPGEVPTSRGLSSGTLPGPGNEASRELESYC
# assay-details: cell-based or functional assay
*1 amine or outer side, *2 acyl side, *3 side chain or, on linkers, in order; H or OH if unused. Where no end group is shown, it is not given here. Side-chain parts run from the residue outwards. [ ]: non-standard residue; d: D form. The star is where a group is joined. Decanoyl(10-(4-HOOC-PhO)) = O=C(O)c1ccc(OCCCCCCCCCC(=O)*)cc1; αMePhe(2-F) = C[C@](N)(Cc1ccccc1F)C(=O)O; γGlu = O=C(O)[C@H](CCC(=O)[*:2])N[*:1]; αMeY = C[C@](N)(Cc1ccc(O)cc1)C(=O)O; αMeL = CC(C)C[C@](C)(N)C(=O)O; Orn = NCCC[C@H](N)C(=O)O; AEEA = NCCOCCOCC(=O)O; Aib = CC(C)(N)C(=O)O
Please provide measured cAMP EC50 for the entries that follow.
Just the number in nM, nothing appended.

Ask: Which cAMP EC50 is listed for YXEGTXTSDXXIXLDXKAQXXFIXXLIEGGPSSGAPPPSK (Y-Aib-EGT-αMeF(2F)-TSD-4Pal-Aib-I-αMeL-LD-Orn-K((2-[2-(2-Amino-ethoxy)-ethoxy]-acetyl)2-(γ-Glu)-CO-(CH2)10-CH3)AQ-Aib-4Pal-FI-(D-Glu)-αMeY-LIEGGPSSGAPPPSK((2-[2-(2-Amino-ethoxy)-ethoxyl-acetyl)2-(γ-Glu)-CO-(CH2)10-CH3)-NH2) [Example 420] ?
Reply: 0.00964

Ask: Which cAMP EC50 is listed for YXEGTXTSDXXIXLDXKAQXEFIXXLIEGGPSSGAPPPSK (Y-Aib-EGT-αMeF(2F)-TSD-4Pal-Aib-I-αMeL-LD-Orn-K((2-[2-(2-Amino-ethoxy)-ethoxy]-acetyl)-(y-Glu)-(10-(4-carboxyphenoxy)decanoyl))AQ-Aib-EFI-(D-Glu)-αMeY-LIEGGPSSGAPPPSK((2-[2-(2-Amino-ethoxy)-ethoxy]-acetyl)-(γ-Glu)-(10-(4-carboxyphenoxy)decanoyl))-NH2) [Example 362] ?
Reply: 0.0131

Ask: Which cAMP EC50 is listed for Y[Aib]EGT[αMePhe(2-F)]TSDV[Aib]I[αMeL]LD[Orn]IAQ[Aib]K([AEEA-γGlu-Decanoyl(10-(4-HOOC-PhO))])FI[dE][αMeY]LIK([AEEA-γGlu-Decanoyl(10-(4-HOOC-PhO))])GGPSSGAPPPS-NH2 [Example 382] ?
Reply: 0.0302

Ask: Which cAMP EC50 is listed for Y[Aib]EGT[αMePhe(2-F)]TSDV[Aib]I[αMeL]LD[Orn]K([AEEA-γGlu-Decanoyl(10-(4-HOOC-PhO))])AQ[Aib]EFI[dE][αMeY]LIK([AEEA-γGlu-Decanoyl(10-(4-HOOC-PhO))])GGPSSGAPPPS-NH2 [Example 379] ?
Reply: 0.0167
